# assay remarks: Clearance in Sprague-Dawley rat at 5 mg/kg
# Assay type: ADME, organism-based
# Set-up: dose 5 mg/kg
# stated conditions: in vivo

compound	units text	clearance
C[C@@]1(c2nc3c(C(N)=O)cccc3[nH]2)CCCN1	L/h/kg	2
C[C@]1(c2nc3c(C(N)=O)cccc3[nH]2)CCCN1 [VELIPARIB]	L/h/kg	2

###

# assay remarks: Oral bioavailability in Sprague-Dawley rat at 5 mg/kg
# Assay type: ADME, organism-based
# stated conditions: in vivo

compound	bioavailability
C[C@@]1(c2nc3c(C(N)=O)cccc3[nH]2)CCCN1	72%
C[C@]1(c2nc3c(C(N)=O)cccc3[nH]2)CCCN1 [VELIPARIB]	61%

Reference source for all entries: ChEMBL document CHEMBL1139389
